# Test system: HOP-62 NSCLC
# Assay comment: NCI-60 one-dose screen, 48 h (100 = growth as untreated, 0 = no growth, -100 = all killed)
# Setup conditions: 10 µM unless noted
The panel holds about 83,000 compounds, 20% with a hit somewhere; the sample as a whole holds those more often. The source made the active and inactive calls. How the source made its calls: active means growth percent below 10; inactive means the rest.
Kindly state growth for each of the entries shown.

For orientation, consider the following solved cases.
[
  {
    "Chem smiles": "COC(=O)N1CCN(CCNCc2ccc(NC(=O)c3ccc(C)c(C#Cc4cnc5cccnn45)c3)cc2C(F)(F)F)CC1",
    "Target under test": "HOP-62 NSCLC",
    "growth": "24.9% (inactive)"
  },
  {
    "Chem smiles": "COc1ccc(/C=N/NC(=O)CSc2nc(-c3cnccn3)cc(-c3cccs3)c2C#N)cc1OC",
    "Target under test": "HOP-62 NSCLC",
    "growth": "77.1% (inactive)"
  },
  {
    "Chem smiles": "COc1cc(NC(=O)Nc2cccc(-c3cc(=O)c4c(OC)c(OC)c(OC)cc4o3)c2)cc(OC)c1OC",
    "Target under test": "HOP-62 NSCLC",
    "growth": "49.7% (inactive)"
  },
  {
    "Chem smiles": "COc1cc(C(=O)c2cc(C(C)=O)c3c(C)cccn23)cc(OC)c1OC",
    "Target under test": "HOP-62 NSCLC",
    "growth": "99.5% (inactive)"
  },
  {
    "Chem smiles": "CC(=O)OC[C@]12CC[C@@H](C(=O)/C=C/c3cccnc3)[C@@H]1[C@H]1CC[C@@H]3[C@@]4(C)CC[C@H](OC(C)=O)C(C)(C)[C@@H]4CC[C@@]3(C)[C@]1(C)CC2",
    "Target under test": "HOP-62 NSCLC",
    "growth": "28.1% (inactive)"
  },
  {
    "Chem smiles": "COc1ccc(-c2c3c(cn2Cc2cccc(OC)c2)-c2oncc2CCC3)cc1",
    "Target under test": "HOP-62 NSCLC",
    "growth": "102% (inactive)"
  },
  {
    "Chem smiles": "Cc1[nH]c(C(=O)Nc2ccc(C(=O)NCC3CCNCC3)cc2OC(C)C)c(Cl)c1Cl",
    "Target under test": "HOP-62 NSCLC",
    "growth": "86.4% (inactive)"
  },
  {
    "Chem smiles": "COC(=O)[C@@H](Cc1c[nH]c2ccccc12)NC(=O)CCCCOc1cc(O)c2c(=O)cc(-c3ccccc3)oc2c1",
    "Target under test": "HOP-62 NSCLC",
    "growth": "96.2% (inactive)"
  },
  {
    "Chem smiles": "Cc1cc2nc3c4cc(C#N)ccc4n(CCN(C)C)c3nc2cc1C",
    "Target under test": "HOP-62 NSCLC",
    "growth": "4.29% (active)"
  },
  {
    "Chem smiles": "Cc1ccc2c(n1)C(=O)C(Cl)=C(Nc1ccc(C#N)cc1)C2=O",
    "Target under test": "HOP-62 NSCLC",
    "growth": "115% (inactive)"
  }
]

Hi team, please reply with growth for each item in this list.
1. CN(C)c1cccc2c(S(=O)(=O)Nc3cccc(-c4csc(NC(=O)CCCCCN5CCN(CCO)CC5)n4)c3)cccc12
2. Cc1ccccc1NC(=O)Nc1nc2ccc([N+](=O)[O-])cc2s1
3. O=[N+]([O-])c1ccc(NC(=S)NNC(=S)Nc2ccc(Br)cc2)cc1
4. CN1CCN(Cc2ccc(NC(=O)c3cncc(C#Cc4cnc5ccc(OCC(F)F)nn45)c3)cc2C(F)(F)F)CC1
5. CCN(CC)S(=O)(=O)c1ccc(-c2nc(C(Cl)Cl)nc3cc(C)nn23)cc1

Given back:
84.9% (inactive)
2.78% (active)
94.9% (inactive)
-76.6% (active)
5.6% (active)

Give growth for each of the items listed below.
1. CCc1cc2c(cc1Cl)nc1c(=O)[nH]c(=O)nc-1n2CCOCC(C)C
2. COc1ccc(C(=O)c2c(N)c(C#N)cn2-c2ccc(Cl)cc2Cl)cc1
3. C#C[C@]1(O)CC[C@H]2[C@@H]3CC=C4c5sc(Nc6ncccc6C)nc5CC[C@]4(C)[C@H]3CC[C@@]21C
4. Clc1ccc2c(N/N=C/c3c[nH]c4ccccc34)ccnc2c1

Given back:
["100% (inactive)", "99.7% (inactive)", "11.9% (inactive)", "-75.1% (active)"]
